test: FRG1 expression reporter modulators in myotubes – cell-based, C2C12 myotubes, firefly/Renilla luciferase, luminescence, FRG1 inhibition for FSHD, primary screen (AID 1084); conditions: FRG1 promoter luciferase, higher = more signal, called active from +8 up or from −8 down
z-score by entry:
Answer with a number only.

Past entries and their recorded results:
INSERT INTO measurements (compound, observed_value) VALUES
  ('C=CCNC(=O)[C@H]1[C@@H]2C(=O)O[C@@H](c3ccccc3)[C@@H](c3ccccc3)N2[C@@H](c2ccc(OCCO)cc2)[C@]12C(=O)Nc1ccc(C#CC3(O)CCCCCC3)cc12', -0.486),
  ('O=C(NCC(O)CO)[C@@]1(CCS(=O)(=O)c2ccccc2)N=C(c2ccc(OCCCO)cc2)O[C@H]1c1ccccc1 (some centres not stated)', 2.37),
  ('O=C1O[C@H](Cc2ccccc2)[C@@H]2[C@H]3C=CCCC=C3CN2[C@H]1Cc1ccc(O)cc1', 0.0201),
  ('O=C1O[C@@H](c2ccccc2)[C@@H](c2ccccc2)N2[C@@H](c3ccccc3OCCO)[C@]3(C(=O)Nc4ccc(C#CCCO)cc43)[C@@H](C(=O)NC[C@H](O)c3ccccc3)[C@H]12', -2.14),
  ('Cc1ccc(S[C@]2(C(=O)NCC(F)(F)F)CC(=O)N(Cc3ccccc3C(F)(F)F)[C@@H]2c2ccc(CO)cc2)cc1', -1.82);

Read off the recorded z-score for COCCCNC(=O)[C@@]1(CCC(=O)OC(C)(C)C)COC(c2ccc(OCCCO)cc2)=N1
-0.604

Name the recorded z-score of the compound listed here: CC[C@@H]1C=C(C(=O)O)[C@H](c2ccc(OC)cc2)N1S(=O)(=O)c1ccc(C)cc1
0.267

----------
target: Torsin-1A (Homo sapiens) (UniProt O14656); assay: torsin A mutant lysate binding on microarrays – cell lysate, small-molecule microarray, COS7 lysate, 635/667 nm fluorescence, primary screen (AID 1150); details: COS7 hTOR1A mutant lysate, 635 nm fluorescence, higher = more signal;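 further: score pools 667 nm emission and signal to noise measuring lysate protein binding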
Sequence (O14656 whole entry, looked up): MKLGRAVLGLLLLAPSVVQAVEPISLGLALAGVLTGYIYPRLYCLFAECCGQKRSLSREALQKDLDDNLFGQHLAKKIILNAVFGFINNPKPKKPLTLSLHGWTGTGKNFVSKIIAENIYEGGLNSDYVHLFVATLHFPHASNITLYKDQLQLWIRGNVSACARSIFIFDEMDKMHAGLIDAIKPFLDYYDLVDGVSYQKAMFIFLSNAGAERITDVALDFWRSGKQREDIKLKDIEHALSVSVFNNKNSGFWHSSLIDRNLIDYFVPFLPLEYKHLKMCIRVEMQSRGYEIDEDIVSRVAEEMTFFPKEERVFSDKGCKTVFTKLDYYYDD
RECORDED_METRIC: composite z-score

Some compounds with known composite z-score results, for comparison:
INSERT INTO measurements (compound, recorded_metric, observed_value) VALUES
  ('CN(C)CCCC[C@@H]1NC(=O)[C@@H]2C[C@H](C(=O)NCCCCCN)[C@H](c3cccc(OCCO)c3)N2C1=O', 'composite z-score', 0.0162),
  ('[N-]=[N+]=Nc1ccccc1C[C@]1(C(=O)N2CCOCC2)N=C(c2ccc(OCCCO)cc2)O[C@H]1c1ccccc1N=[N+]=[N-]', 'composite z-score', 0.946),
  ('C=CCC(OC(C)=O)[C@@H]1[C@@H](N(Cc2cccc3ccccc23)C(=O)Cc2ccc(OC)cc2)c2cc(OCCCO)ccc2N1C(=O)c1ccc2ccccc2c1 (some centres undefined)', 'composite z-score', -0.118);

Please examine the following record next.
GET composite z-score | system: Torsin-1A (Homo sapiens) (UniProt O14656) | item: COC(=O)[C@H](Cc1ccccc1)N1CC2=CCCC=C[C@@H]2[C@H]1[C@H](O)Cc1ccccc1
-0.371

----------
The following compounds are listed with their measured composite z-score values.
assay: compounds binding Alexa647 anti-His antibody – biochemical, small-molecule microarray, 635 nm fluorescence, artefact control for SMM control protein annotation, primary screen (AID 1128); conditions: higher = more signal;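 further: score merges feature fluorescence with signal-to-noise for each printed compound spot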

INSERT INTO measurements (compound, observed_value) VALUES
  ('CC1CC/C=C\[C@H]2OC34C=CCN(C(C)(C)C)C(=O)[C@H]3N(CCCO)C(=O)[C@@H]4C2C(=O)O1 (some centres not stated)', 0.441);

State, in one line, measured composite z-score of O=C1NC(=O)C2C1C=CC(C(O)c1ccc([N+](=O)[O-])cc1)N2Nc1ccccn1 (configuration not stated)
0.753

Tell me composite z-score reported for C=C(COC)/C(=C/C[C@H](OC(C)=O)c1ccccc1OCCO)c1cc(C(=O)OC)ccc1OC
0.101

----------
assay: Pseudomonas biofilm growth suppression – PAO1 strain, BacTiter-Glo luminescence, LB-PBS, primary screen (AID 1144); settings: P. aeruginosa PAO1 biofilm, 12 h, higher = more signal
RECORDED_METRIC: z-score
Number only, please.

Answered examples (3):
INSERT INTO measurements (mol_smiles, recorded_metric, observed_value) VALUES
  ('CCCN1C(=O)[C@]2(CCC(=O)OC(C)(C)C)N=C(c3ccc(OCCCO)cc3)O[C@@H]2c2ccccc21', 'z-score', -0.543),
  ('O=C1[C@H]2C=C(I)[C@H](C[C@@H]2OCCCCCCO)[C@@]12CO2', 'z-score', -0.04),
  ('COC(=O)[C@@]1(Cc2ccccc2)N=C(c2ccc(OCCCO)cc2)O[C@H]1c1ccccc1CN=[N+]=[N-]', 'z-score', -0.621);

Find the measured z-score of COc1cc(CO)cc(I)c1O[C@H]1C=C(C(=O)NCCO)C[C@@H](NC2CCCCCC2)[C@@H]1O and report it.
0.0741

----------
assay: growth modulation of vineyard yeast isolate – strain RM11-1a, OD600, basal, 24 h, primary screen (AID 1177);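 further: cultures grown under basal conditions with no added stressor; test concentration not given here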; details: S. cerevisiae RM11-1a growth, OD600, 24 h; higher = more signal, called active from +8 up or from −8 down
RECORDED_METRIC: z-score
Reply with the value as a number alone.

# annotated cases, reported z-score shown
INSERT INTO results (compound, observed_value) VALUES
  ('COc1ccc([Si](C)(C)[C@H]2[C@H](CCO)O[C@@]3(C(=O)N(Cc4cccc(N5C(=O)c6ccccc6Oc6ccccc65)c4)c4ccccc43)[C@@H]2C)cc1', 3.62),
  ('CC(C)OC(=O)CC(=O)CC(O)c1cccc([N+](=O)[O-])c1 (stereo unspecified)', -2.42),
  ('[N-]=[N+]=Nc1ccccc1[C@H]1OC(c2ccc(OCCCO)cc2)=N[C@@]1(Cc1ccccc1)C(=O)NCC(O)CO (stereo partly specified)', 0.972),
  ('O=C1O[C@@H](c2ccccc2)[C@@H](c2ccccc2)N2[C@@H](c3ccc(OCCO)cc3)[C@]3(C(=O)Nc4ccc(C#CC5(O)CCCCCC5)cc43)[C@@H](C(=O)Nc3nc4ccccc4s3)[C@H]12', 2.45),
  ('CC(=O)NCCCC[C@@H]1NC(=O)[C@H]2C[C@@H](C(=O)NCCCCCCNC(=O)CS)[C@@H](c3cccc(OCCO)c3)N2C1=O', 1.05);

Could you now consider this next compound?
Return z-score (reported value) for this compound: COCCOC(=O)N1C(=O)[C@@]2(c3cc(C#CCCO)ccc31)[C@H](c1ccccc1OCCO)N1[C@H](c3ccccc3)[C@H](c3ccccc3)OC(=O)[C@H]1[C@@H]2C(N)=O
2.34

----------
# z-score annotations
assay: ATP-based viability of Huh7 replicon cells – cell-based, CellTiter-Glo luminescence, basal, 48 h, cytotoxicity control for HCV replication inhibitor project, primary screen (AID 1143); settings: higher = more signal, called active from +8 up or from −8 down;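 further: Huh7 hepatoma cells carrying a hepatitis C replication reporter with no stimulus; test concentration not given here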
Output spec: single numeric token, no unit.

Record excerpt, results attached:
INSERT INTO results (compound, observed_value) VALUES
  ('COC(=O)C(CC#Cc1ccc2c(c1)[C@]1(C(=O)N2)[C@H](c2ccc(OCCO)cc2)N2[C@H](c3ccccc3)[C@H](c3ccccc3)OC(=O)[C@H]2[C@@H]1C(=O)N1CCCCCCC1)C(=O)OC', -1.99),
  ('CCOC(=O)C1=C[C@@H](C(C)(C)C)N(S(=O)(=O)c2ccc(C)cc2)[C@H]1c1ccc(C#N)cc1', -3.61),
  ('C=C(COC)/C(=C/C[C@@H](OC(C)=O)c1ccccc1OCCO)c1cnc2ccccc2c1', -2.52),
  ('O=C1O[C@H](c2ccccc2)[C@H](c2ccccc2)N2[C@H]1[C@@H](C(=O)O)[C@]1(C(=O)Nc3ccc(C#CCCO)cc31)[C@H]2c1ccc(OCCO)cc1', -0.33),
  ('COCCOC(=O)N1C(=O)[C@@]2(c3cc(C#CC4(O)CCCCCC4)ccc31)[C@H](c1ccc(O)cc1)N1[C@H](c3ccccc3)[C@H](c3ccccc3)OC(=O)[C@H]1[C@@H]2C(=O)N1CCCCCCC1', -0.844);

Provide one value: measured z-score of COc1ccc([Si](C)(C)[C@H]2[C@H](CC(=O)N3CCC[C@H]3CO)O[C@@]3(C(=O)N(Cc4ccc(N5CCCCC5=O)cc4)c4ccccc43)[C@@H]2C)cc1
-3.13

Identify the reported z-score for the following entry. COC(=O)[C@@]1(Cc2ccccc2)N=C(c2ccc(OCCCO)cc2)O[C@H]1c1ccccc1CN=[N+]=[N-]
-5.03

----------
molecular target: Fibroblast growth factor 2 (Homo sapiens) (UniProt P09038); assay: basic fibroblast growth factor binding to printed compounds – biochemical, small-molecule microarray, 635/667 nm fluorescence, primary screen (AID 1133); conditions: FGF2, fluorescence 635/667, higher = more signal
Sequence (P09038 whole entry, looked up): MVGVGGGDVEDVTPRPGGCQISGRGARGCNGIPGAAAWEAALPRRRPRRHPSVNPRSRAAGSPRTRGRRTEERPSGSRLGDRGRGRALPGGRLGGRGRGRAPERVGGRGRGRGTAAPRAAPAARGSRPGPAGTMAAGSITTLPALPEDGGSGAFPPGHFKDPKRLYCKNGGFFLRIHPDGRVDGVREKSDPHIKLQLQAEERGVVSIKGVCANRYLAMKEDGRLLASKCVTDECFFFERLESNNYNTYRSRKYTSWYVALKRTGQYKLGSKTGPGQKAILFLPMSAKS
RECORDED_METRIC: composite z-score
// keep it numeric: no unit symbol after the value

Please report the measured composite z-score for CC(C)N1C(=O)c2ccccc2[C@@H](C(=O)NCC(F)(F)F)[C@@H]1c1ccc(CO)cc1
0.0683

Given COC(=O)[C@@]1(Cc2ccccc2)[C@H]2c3cc(C(=O)N4CCCC4)n(Cc4ccc(OC)c(OC)c4)c3C[C@H]2CN1C(=O)c1ccccc1 , respond with its composite z-score.
-0.502

Specify composite z-score for COC(=O)[C@@]1(Cc2ccccc2)[C@H]2c3cc(C(=O)N(C)C)n(Cc4ccc(S(C)(=O)=O)cc4)c3C[C@H]2CN1C(=O)c1ccccc1 and stop.
-0.277

Recall and state the measured composite z-score for C=C(CCCC)/C(=C/C[C@H](OC(=O)c1ccncc1)c1cccc(OCCO)c1)c1cnc2ccccc2c1 .
0.688
